tested-on: UniProtKB Q13882
Sequence (Q13882 whole entry): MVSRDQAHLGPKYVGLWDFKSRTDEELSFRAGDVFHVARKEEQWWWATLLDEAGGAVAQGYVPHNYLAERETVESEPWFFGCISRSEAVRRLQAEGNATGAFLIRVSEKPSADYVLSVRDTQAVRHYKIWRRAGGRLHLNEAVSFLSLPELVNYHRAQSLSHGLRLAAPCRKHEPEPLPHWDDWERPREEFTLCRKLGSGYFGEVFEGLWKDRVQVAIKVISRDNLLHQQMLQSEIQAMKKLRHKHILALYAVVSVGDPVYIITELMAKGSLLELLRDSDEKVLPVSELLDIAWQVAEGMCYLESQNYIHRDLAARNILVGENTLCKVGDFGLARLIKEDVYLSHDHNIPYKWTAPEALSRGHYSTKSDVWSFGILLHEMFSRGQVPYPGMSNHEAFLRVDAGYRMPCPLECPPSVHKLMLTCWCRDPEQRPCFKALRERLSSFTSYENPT
parameter-measured: IC50

Noted IC50 for COc1ccc(C(=O)NC[C@@H](O)CO)cc1/C=C/c1ccc(Cl)cc1 , tested on UniProtKB Q13882: > 50 µM

---

Tested on: DU-145
procedure-text: Antiproliferative activity against human DU145 cells assessed as cell growth inhibition
Type: cell-based
parameter-measured: pIC50
Convention used: pIC50 is expressed as -log10 of the molar concentration.

COc1ccc(C(=O)NC[C@H](O)CO)cc1/C=C/c1ccc(Cl)cc1 4.64

Then this molecule:
Recorded result, COc1ccc(C(=O)NC[C@@H](O)CO)cc1/C=C/c1ccc(Cl)cc1 , pIC50: 5.28

---

tested-on: Tyrosine-protein kinase Yes (Homo sapiens)
Sequence (P07947 whole entry): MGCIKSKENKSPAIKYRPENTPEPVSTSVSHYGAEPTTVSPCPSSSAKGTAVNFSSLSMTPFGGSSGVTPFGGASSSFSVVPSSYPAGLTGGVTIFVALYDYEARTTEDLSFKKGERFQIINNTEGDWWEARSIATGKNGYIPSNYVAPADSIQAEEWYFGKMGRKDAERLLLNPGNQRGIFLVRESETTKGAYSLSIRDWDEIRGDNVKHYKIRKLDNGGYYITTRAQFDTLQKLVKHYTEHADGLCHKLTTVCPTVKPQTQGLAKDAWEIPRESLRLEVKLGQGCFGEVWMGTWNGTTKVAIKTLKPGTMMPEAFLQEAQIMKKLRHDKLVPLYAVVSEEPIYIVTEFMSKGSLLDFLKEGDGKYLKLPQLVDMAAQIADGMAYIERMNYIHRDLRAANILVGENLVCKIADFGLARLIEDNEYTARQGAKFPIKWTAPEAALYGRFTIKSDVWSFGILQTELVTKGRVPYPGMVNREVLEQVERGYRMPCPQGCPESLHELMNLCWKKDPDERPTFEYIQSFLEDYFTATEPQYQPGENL
parameter-measured: IC50

Recorded result, COc1ccc(C(=O)NC[C@H](O)CO)cc1/C=C/c1ccc(Cl)cc1 , IC50: > 50 µM

---

Examples of compounds with documented pIC50 follow.
procedure-text: Antiproliferative activity against human IGROV1/T8 cells assessed as cell growth inhibition
Format: cell-based
condition-summary: IGROV-1
Convention used: pIC50 is expressed as -log10 of the molar concentration.

COc1ccc(C(=O)NC[C@H](O)CO)cc1/C=C/c1ccc(Cl)cc1 4.92

Then this compound:
Recorded result, COc1ccc(C(=O)NC[C@@H](O)CO)cc1/C=C/c1ccc(Cl)cc1 , pIC50: 5.02

---

tested-on: UniProt P00519
Sequence (P00519 whole entry): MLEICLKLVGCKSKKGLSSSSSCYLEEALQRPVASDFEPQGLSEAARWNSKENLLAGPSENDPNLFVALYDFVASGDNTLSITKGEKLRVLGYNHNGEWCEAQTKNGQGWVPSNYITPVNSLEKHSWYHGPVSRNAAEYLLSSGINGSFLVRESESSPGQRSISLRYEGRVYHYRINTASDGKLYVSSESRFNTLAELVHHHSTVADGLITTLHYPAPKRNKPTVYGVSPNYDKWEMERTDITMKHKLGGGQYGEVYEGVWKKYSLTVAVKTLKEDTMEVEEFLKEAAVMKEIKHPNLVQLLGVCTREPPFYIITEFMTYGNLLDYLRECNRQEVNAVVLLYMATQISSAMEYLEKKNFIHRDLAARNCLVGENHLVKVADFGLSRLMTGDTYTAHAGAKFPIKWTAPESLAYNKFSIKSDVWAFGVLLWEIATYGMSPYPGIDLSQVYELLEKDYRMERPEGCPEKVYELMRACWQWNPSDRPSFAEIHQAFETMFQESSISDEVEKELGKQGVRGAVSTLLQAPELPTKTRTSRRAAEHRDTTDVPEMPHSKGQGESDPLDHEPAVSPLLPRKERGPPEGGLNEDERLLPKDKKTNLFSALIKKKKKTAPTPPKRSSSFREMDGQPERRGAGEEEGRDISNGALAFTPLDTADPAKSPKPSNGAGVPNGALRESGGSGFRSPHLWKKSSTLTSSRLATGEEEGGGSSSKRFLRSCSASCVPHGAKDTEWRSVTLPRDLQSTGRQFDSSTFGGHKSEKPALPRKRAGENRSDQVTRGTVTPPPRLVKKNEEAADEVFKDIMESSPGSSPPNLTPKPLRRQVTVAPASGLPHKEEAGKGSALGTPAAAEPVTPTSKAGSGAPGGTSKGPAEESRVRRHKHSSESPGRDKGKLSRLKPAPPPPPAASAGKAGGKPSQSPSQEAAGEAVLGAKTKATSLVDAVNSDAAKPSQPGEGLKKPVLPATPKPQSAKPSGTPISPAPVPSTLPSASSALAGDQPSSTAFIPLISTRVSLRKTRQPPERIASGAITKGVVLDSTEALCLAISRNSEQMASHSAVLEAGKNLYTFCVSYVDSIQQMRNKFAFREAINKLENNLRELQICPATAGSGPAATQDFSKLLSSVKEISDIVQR
pIC50: −log10 of the molar value.
parameter-measured: pIC50

Noted pIC50 for COc1ccc(C(=O)NC[C@@H](O)CO)cc1/C=C/c1ccc(Cl)cc1 , tested on UniProt P00519: < 4.30

---

Tested on: NCI-H460
procedure-text: Antiproliferative activity against human NCI-H460 cells assessed as cell growth inhibition
Assay type: cell-based
parameter-measured: IC50 (µM)
Answer format: numeric, µM implied, no suffix.

Recorded result, COc1ccc(C(=O)NC[C@H](O)CO)cc1/C=C/c1ccc(Cl)cc1 , IC50: 24

Recorded result, COc1ccc(C(=O)NC[C@@H](O)CO)cc1/C=C/c1ccc(Cl)cc1 , IC50: 15

---

Examples of compounds with documented pIC50 follow.
procedure-text: Antiproliferative activity against human COLO320DM cells assessed as cell growth inhibition
Assay type: cell-based
condition-summary: COLO 320DM
Convention used: pIC50 is expressed as -log10 of the molar concentration.

COc1ccc(C(=O)NC[C@@H](O)CO)cc1/C=C/c1ccc(Cl)cc1 4.34

Recorded result, COc1ccc(C(=O)NC[C@H](O)CO)cc1/C=C/c1ccc(Cl)cc1 , pIC50: 4.21

---

tested-on: Tyrosine-protein kinase Lyn (Homo sapiens)
Sequence (P07948 whole entry): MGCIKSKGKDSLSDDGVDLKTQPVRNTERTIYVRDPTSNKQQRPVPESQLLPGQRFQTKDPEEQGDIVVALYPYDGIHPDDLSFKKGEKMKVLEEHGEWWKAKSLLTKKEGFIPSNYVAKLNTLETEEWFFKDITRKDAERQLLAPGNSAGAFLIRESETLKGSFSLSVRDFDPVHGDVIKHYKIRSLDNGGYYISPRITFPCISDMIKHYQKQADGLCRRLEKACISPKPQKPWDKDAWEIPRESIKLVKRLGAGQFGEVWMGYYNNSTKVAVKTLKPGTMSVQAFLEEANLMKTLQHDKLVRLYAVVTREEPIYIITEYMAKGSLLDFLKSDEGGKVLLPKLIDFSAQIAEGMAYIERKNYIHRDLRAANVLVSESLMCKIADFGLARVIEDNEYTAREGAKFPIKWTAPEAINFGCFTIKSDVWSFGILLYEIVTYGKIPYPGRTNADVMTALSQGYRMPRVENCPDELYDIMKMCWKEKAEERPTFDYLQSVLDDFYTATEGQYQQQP
parameter-measured: IC50

Recorded result, COc1ccc(C(=O)NC[C@@H](O)CO)cc1/C=C/c1ccc(Cl)cc1 , IC50: > 50 µM

---

Tested on: HepG2
procedure-text: Antiproliferative activity against human HepG2 cells assessed as cell growth inhibition
Assay type: cell-based
Examples of molecules with documented IC50 follow.
Answer format: numeric, µM implied, no suffix.

COc1ccc(C(=O)NC[C@H](O)CO)cc1/C=C/c1ccc(Cl)cc1 28

Recorded result, COc1ccc(C(=O)NC[C@@H](O)CO)cc1/C=C/c1ccc(Cl)cc1 , IC50: 16

---

procedure-text: Clearance in mouse liver microsome at 5 uM after 60 mins by LC-MS/MS analysis
Type: ADME
condition-summary: liver microsomes, read-out: CLH
Please mark T if the recorded microsomal CLint at 5 µM is equal to or greater than 10 µL/min/mg, and F if it falls below.

CN1CCN(CCOc2ccc(C(N)=O)cc2/C=C/c2ccc(Cl)cc2)CC1 T
COc1ccc(C(=O)NC[C@H](O)CO)cc1/C=C/c1ccc(Cl)cc1 T

Hi team, for COc1ccc(C(=O)NCCO)cc1/C=C/c1ccc(Cl)cc1 , is the recorded microsomal CLint at 5 µM at or above 10 µL/min/mg? T

Hi team, for COc1ccc(C(=O)NC[C@@H](O)CO)cc1/C=C/c1ccc(Cl)cc1 , is the recorded microsomal CLint at 5 µM at or above 10 µL/min/mg? F

Hi team, for COc1ccc(C(N)=O)cc1COc1ccc(Cl)cc1 , is the recorded microsomal CLint at 5 µM at or above 10 µL/min/mg? T

Hi team, for COc1ccc(C(=O)NC(CO)CO)cc1/C=C/c1ccc(Cl)cc1 , is the recorded microsomal CLint at 5 µM at or above 10 µL/min/mg? F
